Structures can show the parent of a compound that is named as a salt.
ENDPOINT LABEL: melting point

Recorded melting point (compound OC1CCCc2ccc(NC3=NCCN3)cc21 (stereo not shown) (as salt: fumarate) ): 180 to 182 °C (dec.)

Recorded melting point (compound Brc1cc2c(c(Br)c1NC1=NCCN1)CCC2 ): 163 to 164 °C

Recorded melting point (compound Cc1nc2c(c(C)c1NC1=NCCN1)CCC2 (as salt: fumarate) ): 220 to 221 °C

Recorded melting point (compound CC1CCCc2cc(NC3=NCCN3)cnc21 (stereo not shown) (as salt: fumarate) ): 155 to 160 °C (dec.)

Recorded melting point (compound CC(=O)N1CCc2cc(NC3=NCCN3)ccc21 (as salt: fumarate) ): 200 to 203 °C (dec.)

Recorded melting point (compound CC1(C)CCCc2cc(NC3=NCCN3)cnc21 (as salt: fumarate) ): 185 to 186 °C (dec.)

Recorded melting point (compound c1nc2c(cc1NC1=NCCN1)CCCC2 (as salt: fumarate) ): 201 to 203 °C

Recorded melting point (compound c1nc2c(cc1NC1=NCCN1)COCC2 (as salt: fumarate) ): 201 to 202.5 °C

Recorded melting point (compound c1nc2c(cc1NC1=NCCN1)CSCC2 (as salt: fumarate) ): 199.5 to 200.5 °C

Recorded melting point (compound CC1CCCc2ccc(NC3=NCCN3)cc21 (stereo not shown) (as salt: fumarate) ): 185 to 187 °C (dec.)

====

Task for the reader: assign each of the following molecules its reported pEC50.
biological target: human α2a adrenergic receptor (Homo sapiens); construct: expressed in transfected cells; host or cells: LM(tk−) cells (L-α2A, ATCC CRL-11180), vector pCEXV-3; experiment: α2 agonist activity: inhibition of forskolin-stimulated cAMP synthesis, α2a cells; type: cell-based
Sequence (P08913 whole entry): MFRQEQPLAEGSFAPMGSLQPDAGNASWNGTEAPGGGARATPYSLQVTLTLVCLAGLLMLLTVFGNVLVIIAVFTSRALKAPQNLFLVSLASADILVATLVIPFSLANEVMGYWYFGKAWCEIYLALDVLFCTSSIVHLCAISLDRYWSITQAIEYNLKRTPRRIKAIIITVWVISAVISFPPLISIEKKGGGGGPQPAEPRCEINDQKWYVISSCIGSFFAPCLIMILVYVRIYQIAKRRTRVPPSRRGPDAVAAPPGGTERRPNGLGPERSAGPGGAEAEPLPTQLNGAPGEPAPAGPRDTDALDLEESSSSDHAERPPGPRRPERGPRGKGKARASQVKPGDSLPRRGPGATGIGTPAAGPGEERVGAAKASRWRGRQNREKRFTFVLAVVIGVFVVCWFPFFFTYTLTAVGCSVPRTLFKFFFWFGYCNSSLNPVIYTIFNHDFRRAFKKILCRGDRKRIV
In plain terms, pEC50 is the concentration in mol/L turned into minus its base-10 logarithm.

human α2a adrenergic receptor (Homo sapiens) assay, molecule c1nc2c(cc1NC1=NCCN1)CCC2 , recorded pEC50 = 6.41

human α2a adrenergic receptor (Homo sapiens) assay, molecule c1cc2c(cc1NC1=NCCN1)CCC2 , recorded pEC50 = 7.83

human α2a adrenergic receptor (Homo sapiens) assay, molecule Brc1nc2c(c(Br)c1NC1=NCCN1)CCC2 , recorded pEC50 = 7.80

human α2a adrenergic receptor (Homo sapiens) assay, molecule Cc1nc2c(c(C)c1NC1=NCCN1)CCC2 , recorded pEC50 = 8.53
